System: KRAS PDC multicell spheroid viability
protocol.description: Anticancer human tumor 825966-067-R-J1-PDC patient-derived colon carcinoma cell line growth inhibition [KRAS2]
stated.conditions: second compound 0.1 µM; first compound 0.01 µM; stronger effect = lower value
Known viability, T/C of a selection of compounds

Some compounds with recorded viability, T/C:
compound="CC(=O)Nc1cccc(-n2c(=O)n(C3CC3)c(=O)c3c(Nc4ccc(I)cc4F)n(C)c(=O)c(C)c32)c1 + C=CC(=O)N1CCN(c2nc(=O)n(-c3c(C)ccnc3C(C)C)c3nc(-c4c(O)cccc4F)c(F)cc23)C(C)C1" result=72.5%
compound="CC1COCCN1c1cc(-c2ccnn2C)c2ccnc(-c3ccn[nH]3)c2n1 (stereo not drawn) + C=CC(=O)N1CCN(c2nc(=O)n(-c3c(C)ccnc3C(C)C)c3nc(-c4c(O)cccc4F)c(F)cc23)C(C)C1" result=110%

Then there is this compound:
Q. Fill in the blank: the reported viability, T/C of CC(=O)Nc1cccc(-n2c(=O)n(C3CC3)c(=O)c3c(Nc4ccc(I)cc4F)n(C)c(=O)c(C)c32)c1 + COc1cc2nc(C)nc(NC(C)c3cc(N)cc(C(F)(F)F)c3)c2cc1OC1CCOC1 is ____.
A. 64%

----------
Tested on: KRAS PDC multicell spheroid viability
protocol.description: Anticancer human tumor 825966-067-R-J1-PDC cell line growth inhibition [KRAS2];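 note: spheroids exposed to compounds for 7 days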;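 for viability, T/C: 100% = DMSO vehicle control viability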
stated.conditions: compound 10 µM; stronger effect = lower value
Known viability, T/C of a selection of compounds

Some compounds with recorded viability, T/C:
compound=COc1cc(Nc2ncc3c(n2)-c2ccc(Cl)cc2C(c2c(F)cccc2OC)=NC3)ccc1C(=O)O result="132% [middle of 5 runs]"
compound=CC1(C)CCC(CN2CCN(c3ccc(C(=O)NS(=O)(=O)c4ccc(NCC5CCOCC5)c([N+](=O)[O-])c4)c(Oc4cnc5[nH]ccc5c4)c3)CC2)=C(c2ccc(Cl)cc2)C1 result="7.19% [middle of 5 runs]"
compound=COc1cc2nccc(Oc3ccc(NC(=O)C4(C(=O)Nc5ccc(F)cc5)CC4)cc3)c2cc1OC result="7.11% [middle of 5 runs]"
compound="CC(C)NCC(C(=O)N1CCN(c2ncnc3c2C(C)CC3O)CC1)c1ccc(Cl)cc1 (stereo not drawn)" result="10% [middle of 5 runs]"
compound="CCNC(=O)CC1N=C(c2ccc(Cl)cc2)c2cc(OC)ccc2-n2c(C)nnc21 (stereo not drawn)" result="83.8% [middle of 5 runs]"

Q. Fill in the blank: the reported viability, T/C of "COC(=O)c1ccc2c(C(=Nc3ccc(N(C)C(=O)CN4CCN(C)CC4)cc3)c3ccccc3)c(O)[nH]c2c1" is ____.
A. 0.29% [middle of 4 runs]

Q. Fill in the blank: the reported viability, T/C of "Cn1nccc1Nc1nccc(-c2cc3c(s2)C(C)(C)N(CCN2CCOCC2)C3=O)n1" is ____.
A. 81.8% [middle of 5 runs]

Q. Fill in the blank: the reported viability, T/C of CNCc1ccccc1-c1csc(C(C)Nc2nc(C)nc3cc(OC)c(OC)cc23)c1 (stereo not drawn) is ____.
A. 0.22% [middle of 14 runs]

----------
Known pIC50 of a selection of compounds
System: KRAS PDC multicell spheroid viability
protocol.description: Anticancer human tumor 825966-067-R-J1-PDC cell line growth inhibition [KRAS2];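 note: spheroids exposed to compounds for 7 days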
stated.conditions: curve of first compound; second compound 0.0316 µM
pIC50: −log10 of the molar value.

Some compounds with recorded pIC50:
compound="COc1cc2nccc(Oc3ccc(NC(=O)C4(C(=O)Nc5ccc(F)cc5)CC4)cc3)c2cc1OC + C=CC(=O)N1CCN(c2nc(OCC3CCCN3C)nc3c2CCN(c2cccc4cccc(C)c24)C3)CC1CC#N" property_label=pIC50 result=5.79
compound="CN(C)C/C=C/C(=O)Nc1cc2c(Nc3ccc(F)c(Cl)c3)ncnc2cc1O[C@H]1CCOC1 + C=CC(=O)N1CCN(c2nc(OCC3CCCN3C)nc3c2CCN(c2cccc4cccc(C)c24)C3)CC1CC#N" property_label=pIC50 result="< 7.00"
compound="CCN1CCN(Cc2ccc(Nc3ncc(F)c(-c4cc(F)c5nc(C)n(C(C)C)c5c4)n3)nc2)CC1 + C=CC(=O)N1CCN(c2nc(OCC3CCCN3C)nc3c2CCN(c2cccc4cccc(C)c24)C3)CC1CC#N" property_label=pIC50 result="< 6.00"
compound="CC(C)n1nc(-c2ccc3oc(N)nc3c2)c2c(N)ncnc21 + C=CC(=O)N1CCN(c2nc(OCC3CCCN3C)nc3c2CCN(c2cccc4cccc(C)c24)C3)CC1CC#N" property_label=pIC50 result="< 7.00"
compound="CC(C)NCC(C(=O)N1CCN(c2ncnc3c2C(C)CC3O)CC1)c1ccc(Cl)cc1 (stereo not given) + C=CC(=O)N1CCN(c2nc(OCC3CCCN3C)nc3c2CCN(c2cccc4cccc(C)c24)C3)CC1CC#N" property_label=pIC50 result=5.66

Q. Fill in the blank: the reported pIC50 of CC1OCC2(CCN(c3cnc(Sc4ccnc(N)c4Cl)c(N)n3)CC2)C1N (stereo not given) + C=CC(=O)N1CCN(c2nc(OCC3CCCN3C)nc3c2CCN(c2cccc4cccc(C)c24)C3)CC1CC#N is ____.
A. 5.06

Q. Fill in the blank: the reported pIC50 of CC1COCCN1c1cc(-c2ccnn2C)c2ccnc(-c3ccn[nH]3)c2n1 (stereo not given) + C=CC(=O)N1CCN(c2nc(OCC3CCCN3C)nc3c2CCN(c2cccc4cccc(C)c24)C3)CC1CC#N is ____.
A. < 5.50

Q. Fill in the blank: the reported pIC50 of COc1cc(Nc2ncc3c(n2)-c2ccc(Cl)cc2C(c2c(F)cccc2OC)=NC3)ccc1C(=O)O + C=CC(=O)N1CCN(c2nc(OCC3CCCN3C)nc3c2CCN(c2cccc4cccc(C)c24)C3)CC1CC#N is ____.
A. < 5.00

Q. Fill in the blank: the reported pIC50 of CC(=O)OC12COC1CC(O)C1(C)C(=O)C(O)C3=C(C)C(OC(=O)C(O)C(NC(=O)OC(C)(C)C)c4ccccc4)CC(O)(C(OC(=O)c4ccccc4)C21)C3(C)C (stereo not given) + C=CC(=O)N1CCN(c2nc(OCC3CCCN3C)nc3c2CCN(c2cccc4cccc(C)c24)C3)CC1CC#N is ____.
A. > 8.00

Q. Fill in the blank: the reported pIC50 of Cn1nccc1Nc1nccc(-c2cc3c(s2)C(C)(C)N(CCN2CCOCC2)C3=O)n1 + C=CC(=O)N1CCN(c2nc(OCC3CCCN3C)nc3c2CCN(c2cccc4cccc(C)c24)C3)CC1CC#N is ____.
A. < 5.00
